Where do the numbers come from? From ChEMBL document CHEMBL1135037.

TEST_TARGET: Serine-threonine protein phosphatase 2A regulatory subunit (Gallus gallus)
Sequence (Q8AWE3 whole entry): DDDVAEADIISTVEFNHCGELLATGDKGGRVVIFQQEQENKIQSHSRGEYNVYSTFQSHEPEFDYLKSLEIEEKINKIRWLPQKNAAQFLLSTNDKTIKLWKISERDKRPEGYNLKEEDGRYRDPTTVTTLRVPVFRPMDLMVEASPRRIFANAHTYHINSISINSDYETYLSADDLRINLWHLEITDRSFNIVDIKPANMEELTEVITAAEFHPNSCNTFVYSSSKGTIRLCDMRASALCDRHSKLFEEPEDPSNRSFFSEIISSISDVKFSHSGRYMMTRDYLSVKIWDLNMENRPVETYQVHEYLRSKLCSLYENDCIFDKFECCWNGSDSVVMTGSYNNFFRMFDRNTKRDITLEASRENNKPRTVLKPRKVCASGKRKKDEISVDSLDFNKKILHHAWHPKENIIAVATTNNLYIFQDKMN
PROCEDURE_TEXT: Concentration required to inhibit the action of protein phosphatase 2A

- COMPOUND: "COC(=O)C1C(C(=O)OC)[C@H]2C=C[C@@H]1O2 (some centres undefined)"
  MEASUREMENT_UNITS: "µM"
  INEQUALITY_SIGN: ">"
  IC50: 2000
- COMPOUND: "COC[C@@H]([C@H](O)[C@H](O)C(=O)NCC[C@H](C)c1nc(/C=C/C[C@@H]2O[C@]3(C[C@@H](O)[C@@H]2C)O[C@H]([C@H](C[C@H](O)[C@H](C)[C@H](O)[C@H](C)/C=C(C)/C(C)=C/C=C/C(C)=C\\C#N)OC)[C@H](OP(=O)(O)O)C3(C)C)co1)N(C)C"
  MEASUREMENT_UNITS: "µM"
  INEQUALITY_SIGN: "="
  IC50: 0.002
- COMPOUND: "O=C1NC(=O)C2C1[C@@H]1C=C[C@H]2S1 (some centres undefined)"
  MEASUREMENT_UNITS: "µM"
  INEQUALITY_SIGN: "="
  IC50: 426
- COMPOUND: "C[C@@](O)(/C=C/[C@H]1CC=CC(=O)O1)[C@@H](C[C@@H](O)\\C=C/C=C\\C=C\\CO)OP(=O)(O)O [FOSTRIECIN SODIUM]"
  MEASUREMENT_UNITS: "µM"
  INEQUALITY_SIGN: "="
  IC50: 0.0034
